- targetUnderTest: UniProtKB Q15858
- Sequence (Q15858 whole entry): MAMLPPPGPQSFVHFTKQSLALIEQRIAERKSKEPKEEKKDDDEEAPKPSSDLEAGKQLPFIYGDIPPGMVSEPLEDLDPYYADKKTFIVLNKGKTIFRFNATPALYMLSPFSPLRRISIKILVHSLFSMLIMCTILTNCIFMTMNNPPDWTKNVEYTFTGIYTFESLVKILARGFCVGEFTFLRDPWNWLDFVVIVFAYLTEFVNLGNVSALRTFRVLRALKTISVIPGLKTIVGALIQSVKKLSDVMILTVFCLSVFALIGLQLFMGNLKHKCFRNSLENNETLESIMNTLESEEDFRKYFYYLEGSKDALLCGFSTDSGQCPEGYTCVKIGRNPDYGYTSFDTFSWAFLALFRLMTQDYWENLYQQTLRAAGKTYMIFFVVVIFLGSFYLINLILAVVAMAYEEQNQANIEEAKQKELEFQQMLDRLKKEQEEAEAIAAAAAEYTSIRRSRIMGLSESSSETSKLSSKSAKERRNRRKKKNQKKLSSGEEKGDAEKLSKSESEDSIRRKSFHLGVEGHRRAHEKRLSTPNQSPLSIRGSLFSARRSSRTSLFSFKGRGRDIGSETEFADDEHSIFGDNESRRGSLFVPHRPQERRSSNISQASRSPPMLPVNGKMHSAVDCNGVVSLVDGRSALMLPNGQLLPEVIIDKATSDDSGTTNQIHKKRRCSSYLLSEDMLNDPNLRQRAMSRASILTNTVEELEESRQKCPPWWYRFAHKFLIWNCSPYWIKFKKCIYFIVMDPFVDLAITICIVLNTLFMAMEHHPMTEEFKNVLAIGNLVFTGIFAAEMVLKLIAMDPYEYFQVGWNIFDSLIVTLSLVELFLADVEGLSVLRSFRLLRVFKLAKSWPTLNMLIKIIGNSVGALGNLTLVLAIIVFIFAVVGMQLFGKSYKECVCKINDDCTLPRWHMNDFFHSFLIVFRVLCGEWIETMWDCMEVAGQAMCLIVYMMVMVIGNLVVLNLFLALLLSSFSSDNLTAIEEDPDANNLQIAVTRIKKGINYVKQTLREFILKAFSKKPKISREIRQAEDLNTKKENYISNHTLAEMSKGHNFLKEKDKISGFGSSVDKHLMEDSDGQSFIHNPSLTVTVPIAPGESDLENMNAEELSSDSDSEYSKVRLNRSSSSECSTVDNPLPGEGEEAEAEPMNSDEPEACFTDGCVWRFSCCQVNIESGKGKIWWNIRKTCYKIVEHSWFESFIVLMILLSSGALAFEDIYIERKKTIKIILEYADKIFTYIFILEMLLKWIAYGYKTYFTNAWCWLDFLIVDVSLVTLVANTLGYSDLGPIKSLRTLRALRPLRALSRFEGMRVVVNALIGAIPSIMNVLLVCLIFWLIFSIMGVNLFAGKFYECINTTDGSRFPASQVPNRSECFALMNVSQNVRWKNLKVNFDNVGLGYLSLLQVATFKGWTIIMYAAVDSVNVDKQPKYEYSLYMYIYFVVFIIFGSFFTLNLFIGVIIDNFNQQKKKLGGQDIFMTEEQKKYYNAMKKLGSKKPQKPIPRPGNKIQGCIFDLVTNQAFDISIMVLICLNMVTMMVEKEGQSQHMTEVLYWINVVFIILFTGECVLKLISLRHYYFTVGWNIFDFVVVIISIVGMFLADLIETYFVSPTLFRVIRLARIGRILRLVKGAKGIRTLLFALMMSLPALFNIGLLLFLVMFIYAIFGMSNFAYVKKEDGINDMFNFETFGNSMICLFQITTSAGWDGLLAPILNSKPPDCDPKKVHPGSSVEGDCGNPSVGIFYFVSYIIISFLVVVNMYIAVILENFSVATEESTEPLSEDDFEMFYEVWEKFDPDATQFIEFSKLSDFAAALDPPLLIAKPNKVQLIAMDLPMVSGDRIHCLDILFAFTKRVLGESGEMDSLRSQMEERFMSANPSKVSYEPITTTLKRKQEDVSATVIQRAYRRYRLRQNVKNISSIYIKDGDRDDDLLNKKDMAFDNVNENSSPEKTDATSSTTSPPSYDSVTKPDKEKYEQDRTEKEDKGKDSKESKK
- procedureSummary: Nav 1.7 in vitro PX assay (PatchXpress whole cell voltage clamp);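 note: holding potential set for 20 to 50% inactivation, sodium current evoked by a 20 ms step to −10 mV, peak current inhibition read after compound exposure, 3–5 cells per concentration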
- Assay type: cell-based
- testParameters: HEK 293 cells stably transfected with human Nav1.7; PatchXpress; partially inactivated state
assayEndpoint: IC50 (nM)

molecule=COc1cc(F)cc(-c2cc(OC)c(-c3ncnc4cc(S(=O)(=O)Nc5ccon5)ccc34)cc2C)c1 targetundertest="UniProtKB Q15858" readoutvalue=35
molecule=COc1cc(-c2c(F)cccc2F)c(C)cc1-c1ncnc2cc(S(=O)(=O)Nc3ccon3)ccc12 targetundertest="UniProtKB Q15858" readoutvalue=199
molecule=COc1cc(-c2ccc(Cl)c(C)c2)c(F)cc1-c1c(=O)[nH]cc2cc(S(=O)(=O)Nc3ccon3)ccc12 targetundertest="UniProtKB Q15858" readoutvalue=8
molecule=COc1cc(-c2cc(C)cc(C)c2)c(F)cc1-c1ncnc2cc(S(=O)(=O)Nc3ccon3)ccc12 targetundertest="UniProtKB Q15858" readoutvalue=51
molecule=COc1cc(F)c(-c2ccccn2)cc1-c1nccc2cc(S(=O)(=O)Nc3ccon3)ccc12 targetundertest="UniProtKB Q15858" readoutvalue=28400
molecule="CCc1nnc2cc(S(=O)(=O)Nc3ccon3)ccc2c1-c1cc(Cl)c(-c2cccc(F)c2)cc1OC (atropisomer, axis not shown; (P)) [Example 444]" targetundertest="UniProtKB Q15858" readoutvalue=1160
molecule="COc1cc(F)c(-c2cncc(F)c2)cc1-c1nccc2cc(S(=O)(=O)Nc3ccon3)ccc12 [Example 392, 2,2,2-trifluoroacetate]" targetundertest="UniProtKB Q15858" readoutvalue=491
molecule=COc1cc(-c2cccc(Cl)c2)c(C)cc1-c1ncnc2cc(S(=O)(=O)Nc3ncccn3)ccc12 targetundertest="UniProtKB Q15858" readoutvalue=65
molecule="CCc1nnc2cc(S(=O)(=O)Nc3ccon3)ccc2c1-c1cc(Cl)c(-c2cccc(F)c2)cc1OC (atropisomer, axis not shown; (M)) [Example 443]" targetundertest="UniProtKB Q15858" readoutvalue=87
molecule=COc1cc(-c2cc(C)ccc2F)c(C)cc1-c1ncnc2cc(S(=O)(=O)Nc3ccon3)ccc12 targetundertest="UniProtKB Q15858" readoutvalue=113
molecule=COc1cc(-c2cccc(F)c2)c(Cl)cc1-c1c(N)nnc2cc(S(=O)(=O)Nc3ccon3)ccc12 targetundertest="UniProtKB Q15858" readoutvalue=28
molecule="COc1cc(-c2cccc(C(F)(F)F)c2)c(F)cc1-c1c2ccc(S(=O)(=O)Nc3ccon3)cc2cc(=O)n1C (atropisomer, axis not shown; (M)) [Example 552]" targetundertest="UniProtKB Q15858" readoutvalue=1250
molecule=COc1cc(-c2ccc(Cl)c(C)c2)c(F)cc1-c1[nH]c(=O)cc2cc(S(=O)(=O)Nc3ccon3)ccc12 targetundertest="UniProtKB Q15858" readoutvalue=16
molecule=COc1cc(-c2cccc(Cl)c2)c(F)cc1-c1cn(C)c(=O)c2cc(S(=O)(=O)Nc3ccon3)ccc12 targetundertest="UniProtKB Q15858" readoutvalue=49
molecule=COc1cc(-c2cccc(F)c2)c(Cl)cc1-c1cn(C)c(=O)c2cc(S(=O)(=O)Nc3ccon3)ccc12 targetundertest="UniProtKB Q15858" readoutvalue=68
molecule=COc1cc(-c2ccc(F)c(Cl)c2)c(C)cc1-c1ncnc2cc(S(=O)(=O)Nc3ncccn3)ccc12 targetundertest="UniProtKB Q15858" readoutvalue=78
molecule=COc1cc(-c2ccc(F)cc2F)c(C)cc1-c1ncnc2cc(S(=O)(=O)Nc3ccon3)ccc12 targetundertest="UniProtKB Q15858" readoutvalue=105
molecule=CCOc1ccc(-c2cc(OC)c(-c3ncnc4cc(S(=O)(=O)Nc5ccon5)ccc34)cc2F)cc1C targetundertest="UniProtKB Q15858" readoutvalue=610
molecule=COc1cc(-c2cccc(Cl)c2)c(F)cc1-c1ncnc2cc(S(=O)(=O)Nc3ncon3)ccc12 targetundertest="UniProtKB Q15858" readoutvalue=28
molecule="COc1cc(-c2cccc(F)c2)c(Cl)cc1-c1c(O)cnc2cc(S(=O)(=O)Nc3ccon3)ccc12 (atropisomer, axis not shown; (P)) [Example 338]" targetundertest="UniProtKB Q15858" readoutvalue=41
molecule=COc1cc(-c2cc(F)cc(C(F)F)c2)c(F)cc1-c1nccc2cc(S(=O)(=O)Nc3ccon3)ccc12 targetundertest="UniProtKB Q15858" readoutvalue=52
